ASSAY_INFO: Cmax in Sprague-Dawley rat at 50 mg/kg, po measured upto 4 hrs by UPLC-MS/MS analysis
Format: ADME, organism-based
CONDITION_DETAILS: in vivo
MEASUREMENT_LABEL: Cmax (ng/mL)
Report as a plain number; the unit ng/mL is understood.

Query :: Which value of Cmax has been reported for O=C(/C=C/c1ccc(O)c(O)c1)CCCCc1ccccc1 in the records?
Result :: 48.9

---

ASSAY_INFO: Cytotoxicity against mouse NIH3T3 cells assessed as survival rate at 10 uM measured after 24 hrs by CCK-8 assay relative to control
Assay type: toxicity, cell-based
CONDITION_DETAILS: read-out: Survival
Quick reference for viability at 24 h, 10 µM among some molecules
Output spec: scalar in %, unitless text.

> print(dat)
                                   molecule  result.number
1  COc1cc(CNC(=O)CCCCCCC(C)C)ccc1O [DIHYDROCAPSAICIN]           92.3

Query :: For OC(CCCCc1ccccc1)CCc1ccccc1 (configuration not stated) , what is its reported viability at 24 h, 10 µM?
Result :: 74.1

Query :: Would you mind telling me what viability at 24 h, 10 µM value was observed for O=C(/C=C/c1ccc(O)c(O)c1)CCCCc1ccccc1 ?
Result :: 99.2

Query :: Return reported viability at 24 h, 10 µM; argument: CC(C)CC(=O)NCc1ccc(O)c(O)c1
Result :: 115

Query :: // lookup viability at 24 h, 10 µM for COc1ccc(CCC(=O)CCCCc2cccc(O)c2)cc1
Result :: 91.1

Query :: For the molecule shown here, COc1cc(CNC(=O)CCCC/C=C/C(C)C)ccc1O , give the reported viability at 24 h, 10 µM.
Result :: 98.6

Query :: GET /values?readout=viability at 24 h, 10 µM&item= CCCCCCCCCC(=O)NCc1ccc(OC(C)=O)c(OC(C)=O)c1
Result :: 141

Query :: So what does the record say about viability at 24 h, 10 µM for CCCCCC(=O)NCc1ccc(OC)c(OC)c1 ?
Result :: 85.8

Query :: What does the record list as viability at 24 h, 10 µM for COc1ccc(CNC(=O)CCCCc2ccccc2)cc1OC ?
Result :: 91.2

Query :: Query: viability at 24 h, 10 µM; subject: O=C(CCCCc1ccccc1)CCc1ccc(O)cc1
Result :: 117

Query :: // lookup viability at 24 h, 10 µM for CCCCCCCCC(=O)NCc1ccc(OC(C)=O)c(OC(C)=O)c1
Result :: 137

Query :: Given the entry Oc1ccc(CCC(O)CC/C=C/c2ccccc2)cc1O (configuration not stated) , report its measured viability at 24 h, 10 µM.
Result :: 131

---

ASSAY_INFO: MRT(0 to infinity) in Sprague-Dawley rat at 50 mg/kg, po measured upto 4 hrs by UPLC-MS/MS analysis
Format: ADME, organism-based
CONDITION_DETAILS: in vivo
MEASUREMENT_LABEL: MRT inf (h)
Use h as the unit, but write only the number.

Query :: Need MRT inf of O=C(/C=C/c1ccc(O)c(O)c1)CCCCc1ccccc1 , thanks.
Result :: 1.35

---

ASSAY_INFO: Bioavailability in Sprague-Dawley rat at 50 mg/kg, ip measured upto 4 hrs by UPLC-MS/MS analysis
Type: ADME, organism-based
CONDITION_DETAILS: in vivo
MEASUREMENT_LABEL: bioavailability
Note: state the figure and append the unit.

Query :: Given O=C(/C=C/c1ccc(O)c(O)c1)CCCCc1ccccc1 , state its recorded bioavailability.
Result :: 29.6%

---

The following compounds are shown together with reported viability at 24 h, 10 µM values.
ASSAY_INFO: Cytotoxicity against mouse NIH3T3 cells assessed as survival rate at 10 uM measured after 24 hrs by CCK-8 assay relative to control
Type: toxicity, cell-based
CONDITION_DETAILS: read-out: Survival
Record the value in %, omitting the unit from your answer.

> print(dat)
                                   compound         measurement.label  units.of.measure  result.number
1  COc1cc(/C=C/C(=O)CC(O)/C=C/c2ccc(O)c(OC)c2)ccc1O (configuration not stated)  viability at 24 h, 10 µM                 %             85
2  CC(=O)Oc1ccc(/C=C/C(=O)Cc2ccccc2)cc1OC(C)=O  viability at 24 h, 10 µM                 %            149
3    CCCCCC(=O)NCc1ccc(OC(C)=O)c(OC(C)=O)c1  viability at 24 h, 10 µM                 %            138
4               CCCCC(=O)NCc1ccc(OC)c(OC)c1  viability at 24 h, 10 µM                 %             86
5          CCCCCCCCCC(=O)NCc1ccc(OC)c(OC)c1  viability at 24 h, 10 µM                 %            101

Query :: Consider the compound shown here: C(=C\C=C\c1ccccc1)/C=C/Cc1ccccc1 What is its recorded viability at 24 h, 10 µM?
Result :: -2.34

Query :: Given CCCCCCCC(=O)NCc1ccc(OC(C)=O)c(OC(C)=O)c1 , state its recorded viability at 24 h, 10 µM.
Result :: 151

Query :: viability at 24 h, 10 µM lookup needed for COC(/C=C/C=C/c1ccccc1)CCc1ccc(O)cc1 (configuration not stated) , thanks.
Result :: 111

Query :: # viability at 24 h, 10 µM lookup, item COc1cc(CCC(O)CC/C=C/c2ccccc2)ccc1O (configuration not stated)
Result :: 103

Query :: What viability at 24 h, 10 µM value was documented for this compound, O=C(CCc1ccccc1)CC(O)CCc1ccccc1 (configuration not stated) ?
Result :: 111

Query :: I am curious: what viability at 24 h, 10 µM value has been reported for COc1ccc(OC)c(CCCCC(=O)CCc2ccc(OC)c(O)c2)c1 ?
Result :: 96.8

Query :: // query viability at 24 h, 10 µM value for entry CCCCCCCCC(=O)NCc1ccc(OC(C)=O)c(OC)c1
Result :: 129

---

ASSAY_INFO: MRT(0 to t) in Sprague-Dawley rat at 50 mg/kg, iv measured upto 4 hrs by UPLC-MS/MS analysis
Format: ADME, organism-based
CONDITION_DETAILS: in vivo
MEASUREMENT_LABEL: MRT last at 4 h
Remember to follow the number with its unit.

Query :: Find the recorded MRT last at 4 h belonging to O=C(/C=C/c1ccc(O)c(O)c1)CCCCc1ccccc1 and report it.
Result :: 44.6 min

---

ASSAY_INFO: Cmax in Sprague-Dawley rat at 50 mg/kg, ip measured upto 4 hrs by UPLC-MS/MS analysis
Format: ADME, organism-based
CONDITION_DETAILS: in vivo
MEASUREMENT_LABEL: Cmax
Record the result as number plus unit.

Query :: Item O=C(/C=C/c1ccc(O)c(O)c1)CCCCc1ccccc1 has what recorded Cmax?
Result :: 1490 ng/mL

---

ASSAY_INFO: AUC(0 to t) in Sprague-Dawley rat at 50 mg/kg, po measured upto 4 hrs by UPLC-MS/MS analysis
Type: ADME, organism-based
CONDITION_DETAILS: in vivo
MEASUREMENT_LABEL: AUC(0-t) at 4 h (ng·h/mL)
The figure you give is taken to be in ng·h/mL; do not add the unit.

Query :: Which AUC(0-t) at 4 h reading was recorded for the molecule O=C(/C=C/c1ccc(O)c(O)c1)CCCCc1ccccc1 ?
Result :: 99

---

ASSAY_INFO: Oral bioavailability in Sprague-Dawley rat at 50 mg/kg measured upto 4 hrs by UPLC-MS/MS analysis
Type: ADME, organism-based
CONDITION_DETAILS: in vivo
MEASUREMENT_LABEL: bioavailability (%)
# value in %; strip the unit string

Query :: I have this molecule here, O=C(/C=C/c1ccc(O)c(O)c1)CCCCc1ccccc1 , and I need its recorded bioavailability.
Result :: 6.5

---

ASSAY_INFO: Tmax in Sprague-Dawley rat at 50 mg/kg, ip measured upto 4 hrs by UPLC-MS/MS analysis
Type: ADME, organism-based
CONDITION_DETAILS: in vivo
MEASUREMENT_LABEL: Tmax (min)
Please state the figure in min; there is no need to write the unit.

Query :: Consider the compound shown here: O=C(/C=C/c1ccc(O)c(O)c1)CCCCc1ccccc1 What is its recorded Tmax?
Result :: 10.2

---

ASSAY_INFO: MRT(0 to infinity) in Sprague-Dawley rat at 50 mg/kg, ip measured upto 4 hrs by UPLC-MS/MS analysis
Assay type: ADME, organism-based
CONDITION_DETAILS: in vivo
MEASUREMENT_LABEL: MRT inf (min)
Write it as a number; the unit min goes unstated.

Query :: Entry O=C(/C=C/c1ccc(O)c(O)c1)CCCCc1ccccc1 has what MRT inf?
Result :: 34.2

Data provenance is ChEMBL document CHEMBL6096723.
